tested on: HEK-293T; test: Multiplex assay against HEK293T; type: toxicity, cell-based; settings: human, 48 h, 1 µM, compound concentration 1 uM, replicate 1
# Lookup of reported Population Membrane Permeable-Phenotype (%) keyed by entry
Output spec: scalar in %, unitless text.

Note to self: Population Membrane Permeable-Phenotype (%) of Cc1ccc(F)cc1C(=O)Nc1ccc(C(=O)N2Cc3cccn3Cc3ccccc32)c(Cl)c1 with HEK-293T was 0

Note to self: Population Membrane Permeable-Phenotype (%) of Cc1nc2ccc(Oc3ccc(F)cc3)cc2c(=O)n1C[C@H]1CCCN(C(C)C)C1.Cl with HEK-293T was 1

Note to self: Population Membrane Permeable-Phenotype (%) of COc1cc(C(=O)N(CCCc2ccccc2)Cc2ccc(CC(=O)O)cc2)cc(OC)c1C with HEK-293T was 1

Note to self: Population Membrane Permeable-Phenotype (%) of N#Cc1c(N)nc(SCc2csc(-c3ccc(Cl)cc3)n2)c(C#N)c1-c1ccc(OCCO)cc1 with HEK-293T was 1

Note to self: Population Membrane Permeable-Phenotype (%) of C[C@H]1[C@H]2CC[C@H]3[C@@H]4CC=C5C[C@@H](N(C)C)CC[C@]5(C)[C@H]4CC[C@]23CN1C with HEK-293T was 1

// provenance: ChEMBL document CHEMBL5058577
